Several publications report pIC50 on BTK (Homo sapiens, UniProt Q06187); those values are gathered here.
Sequence (Q06187 whole entry): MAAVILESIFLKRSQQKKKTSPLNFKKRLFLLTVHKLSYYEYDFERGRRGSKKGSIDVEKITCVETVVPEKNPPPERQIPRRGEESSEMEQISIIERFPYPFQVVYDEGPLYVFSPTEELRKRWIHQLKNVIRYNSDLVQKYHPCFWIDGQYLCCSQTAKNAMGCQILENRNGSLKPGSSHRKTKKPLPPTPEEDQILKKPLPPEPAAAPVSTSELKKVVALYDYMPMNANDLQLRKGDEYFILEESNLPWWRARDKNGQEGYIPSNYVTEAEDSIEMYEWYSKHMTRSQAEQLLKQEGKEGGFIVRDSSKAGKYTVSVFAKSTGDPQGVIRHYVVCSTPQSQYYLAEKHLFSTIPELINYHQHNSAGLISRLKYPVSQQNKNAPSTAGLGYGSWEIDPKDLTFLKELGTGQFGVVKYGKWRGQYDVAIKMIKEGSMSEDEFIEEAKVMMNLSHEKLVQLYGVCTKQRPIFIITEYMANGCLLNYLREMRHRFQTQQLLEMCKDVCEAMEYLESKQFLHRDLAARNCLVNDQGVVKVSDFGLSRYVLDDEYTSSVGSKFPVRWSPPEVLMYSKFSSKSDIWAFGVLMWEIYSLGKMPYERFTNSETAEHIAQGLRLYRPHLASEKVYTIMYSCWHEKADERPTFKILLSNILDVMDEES
pIC50: −log10 of the molar value.

>>> measured_value("O=C(CNc1ccc2[nH]ncc2c1)N[C@@H]1CCCN(c2ncnc3[nH]ccc23)C1")
"5.00 to 6.00"
>>> measured_value("C=CC(=O)Nc1cccc(Oc2c(Cl)cnc3[nH]c(-c4ccc(NC5CCN(C)CC5)cc4)nc23)c1")
"≥ 7.30"
>>> measured_value("C[C@H]1CN(c2nc(-c3cnn(C)c3)cn3nccc23)CC[C@H]1CNC(=O)c1noc(C2(C)CC2)n1 (single isomer, unassigned)")
"6.00 to 8.00"
>>> measured_value("CCCc1ccnc(NC(=O)c2ccc(-c3nn([C@@H]4CCN(C(=O)/C=C/CN(C)C)C4)c4ncnc(N)c34)cc2)c1")
"> 9.00"
>>> measured_value("Cn1cc(-c2cn3nccc3c(-c3ccc(CNC(=O)c4noc(C(C)(C)C)n4)c(C(F)F)c3)n2)cn1")
"> 9.00"

State recorded pIC50 for all listed compounds.
1. C=CC(=O)Nc1cccc(-c2csc3c(=O)cc(N4CCNCC4)oc23)c1.O=C(O)C(F)(F)F
2. CCCS(=O)(=O)Nc1cccc(C(=O)c2c[nH]c3ncc(-c4ccccc4)cc23)c1F
3. CN1CCC(n2cc(Nc3nccc(-c4ccc(CNC(=O)N5CC(OC(C)(C)C)C5)c(C(F)(F)F)c4)n3)cn2)CC1
4. CC#CC(=O)N[C@@H](C)c1nc(-c2ccc(C(=O)Nc3ccc(C)cn3)cc2)c2c(N)nccn12
5. COc1ccc(-c2nn(C3CCc4ccccc4C3)c3ncnc(N)c23)cc1F (racemic)

Data returned:
1. 5.00 to 6.00
2. ≥ 5.00
3. > 8.00
4. 8.80
5. 6.66
